System: SW-620 colon
Assay: NCI tumour cell line growth inhibition, 48 h
assay readout: TGI

INSERT INTO measurements (compound, assay_readout, result_value) VALUES
  ('CC[C@]1(Cc2ccc(OC)c(OC)c2)C=[N+]([O-])O[C@H](OC2CCCC2(c2ccccc2)c2ccccc2)[C@@H]1OC(C)=O (stereo not given in full)', 'TGI', '> 100 µM'),
  ('NC(=O)c1ccccc1Nc1ccc2nnc(-c3ccncc3)n2n1', 'TGI', '19.1 µM'),
  ('O=C(O)c1cc2ccc3ccccc3c2oc1=O', 'TGI', '> 100 µM'),
  ('CC1=NN(c2cccc(Cl)c2)C2(SCC(=O)N2c2nc3ccccc3s2)/C1=C\c1cccs1 (stereo not given)', 'TGI', '> 100 µM'),
  ('COc1ccc(-n2c(=O)[nH]n(C(C)=O)c2=O)cc1', 'TGI', '> 100 µM'),
  ('COc1cccc(-n2nc(C)c3c(N/N=C(\C)c4ccncc4)ncnc32)c1', 'TGI', '> 25 µM'),
  ('COc1cccc2c1ccc1nc3cccc(C(=O)N[C@H](C)CN(C)C)c3nc12', 'TGI', '0.694 µM'),
  ('c1cc2n(n1)CCN2', 'TGI', '> 10000 µM'),
  ('CC1CC[C@@]2(OC1)OC1C[C@H]3[C@@H]4CC=C5CC(OC6OC(CO)C(OC7OC(CO)C(O)C(OC8OCC(O)C(O)C8O)C7OC7OC(CO)C(O)C(O)C7O)C(O)C6O)CCC5(C)[C@H]4CCC3(C)C1[C@@H]2C (stereo not given in full)', 'TGI', '8.3 µM'),
  ('N.N.N.N.N.[Cl-].[Co+3].c1ccc(-c2nn[n-]n2)cc1', 'TGI', '> 100 µM');
